- Test system: XIP peptide (Xip251-270)
- Experiment Notes: compounds binding XIP fragment 251-270 – biochemical, small-molecule microarray, fluorescence 635/667 nm, 0.5 µg/mL protein, primary screen (AID 1183)
- Condition Summary: fluorescence 635 nm, higher = more signal
Experimental Endpoint: composite z-score
Answers are plain numbers.

Answered cases to consult:
1) CCCNC(=O)[C@@]1(Sc2ccc(C)cc2)CC(=O)N(Cc2ccccc2C(F)(F)F)[C@@H]1c1ccc(CO)cc1I ... 0.704
2) CCCCCCc1nc(-c2ccc(-c3ccc(Cl)c(Cl)c3)o2)c(C)c2c1[Si](C(C)C)(C(C)C)OC2 ... 0.148
3) CCCCC(=C=CC[C@H](O)c1cccc(OCCO)c1)C[C@H](O)c1ccccn1 ... 0.661
4) O=C1C2C=CC(C(O)COCc3ccccc3)N(Nc3ccc([N+](=O)[O-])cc3)C2C(=O)N1c1ccccc1 (stereo unspecified) ... -0.006

Batch lookup, composite z-score per entry.
1. COCCCNC(=O)[C@@]1(Cc2ccccc2CN=[N+]=[N-])N=C(c2ccc(OCCCO)cc2)O[C@H]1c1ccccc1CN=[N+]=[N-]
2. COC(=O)c1c(CC[C@@H](CO)NC(=O)N[C@@H](Cc2ccccc2)Cn2cc(-c3ccccn3)nn2)oc(C(=O)N2CCOCC2)c1C(=O)OC

1. 0.443
2. 0.0134

---

- Assay System: Concanavalin-A (Canavalia ensiformis) (UniProt P02866)
- Sequence (P02866 whole entry, looked up): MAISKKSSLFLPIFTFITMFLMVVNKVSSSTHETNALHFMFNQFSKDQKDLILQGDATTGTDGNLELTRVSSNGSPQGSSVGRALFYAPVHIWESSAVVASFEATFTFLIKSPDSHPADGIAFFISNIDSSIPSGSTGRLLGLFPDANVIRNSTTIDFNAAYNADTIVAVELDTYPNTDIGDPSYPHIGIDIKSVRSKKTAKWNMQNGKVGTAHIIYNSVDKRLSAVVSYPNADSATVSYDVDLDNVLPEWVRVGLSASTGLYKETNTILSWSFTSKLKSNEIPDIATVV
- Experiment Notes: compounds binding concanavalin A lectin – biochemical, small-molecule microarray, Alexa647 label, 635 nm, artefact control for SMM control protein annotation, primary screen (AID 1127);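 note: z combines 667 nm emission intensity with signal-to-noise across three replicate slides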
- Condition Summary: ConA-A647 binding fluorescence, higher = more signal
Record MET whenever composite z-score is at 0.4 or higher; record NOT MET when lower.

1) O=C(O)[C@H](Cc1ccccc1)n1cc(-c2ccccc2)nn1 ... NOT MET
2) COc1ccc(NC(=O)O[C@H]2[C@H](OC(=O)c3cc4ccccc4[nH]3)[C@@H](OC(=O)c3cc4ccccc4[nH]3)[C@@H](OC)O[C@@H]2CO)cc1 ... NOT MET
3) CO[C@H]1O[C@H](CO)[C@@H](OC(=O)Nc2ccccc2-c2ccccc2)[C@H](OC(=O)Nc2ccccc2-c2ccccc2)[C@@H]1OC(=O)Nc1ccccc1-c1ccccc1 ... MET
4) COc1cc2c(cc1O)C(c1cccs1)N(Cc1ccc([N+](=O)[O-])o1)CC2 (stereo not drawn) ... NOT MET
5) [N-]=[N+]=Nc1ccccc1C[C@]1(C(=O)NCC(O)CO)N=C(c2ccc(OCCCO)cc2)O[C@H]1c1ccccc1 (stereo partly drawn) ... NOT MET

Hello, I need to know if O=C1NC(=O)C2C1C=CC(C(O)c1ccc(I)cc1)N2Nc1ccc(Cl)cc1Cl (stereo not drawn) has measured composite z-score not below 0.4. Thanks!
MET

Decide: is the reported value of composite z-score for `COCC(=C=CC[C@H](O)c1cccc(OCCO)c1)C[C@H](O)c1cc(Cl)cc(Cl)c1O` equal to or greater than 0.4?
NOT MET

Is composite z-score for `CCCNC(=O)[C@@]1(Sc2ccc(C)cc2)CC(=O)N(Cc2ccccc2C(F)(F)F)[C@@H]1c1ccc(CO)cc1I` at or above 0.4?
MET

---

- Experiment Notes: compound effects on hepatocellular carcinoma cell viability – HepG2, calcein-AM fluorescence, 48 h, basal, profiling panel (AID 1164)
- Condition Summary: higher = more signal
Experimental Endpoint: z-score
One number for each entry.

1) COCCOC(=O)N1C(=O)[C@@]2(c3cc(C#CCCO)ccc31)[C@H](c1ccc(O)cc1)N1[C@H](c3ccccc3)[C@H](c3ccccc3)OC(=O)[C@H]1[C@@H]2C(=O)N1CCN(c2ncccn2)CC1 ... -0.753
2) CC(C)(C)OC(=O)CC[C@]1(C(=O)NCCN2CCOCC2)COC(c2ccc(OCCCO)cc2)=N1 ... 0.854
3) C=C(CCCC)/C(=C/C[C@H](OC(C)=O)c1ccc(OCCO)cc1)c1cnc2ccccc2c1 ... -0.257
4) CCN(CC)c1ccc(N2CC=CC34O[C@@H]5C=CCOC(=O)[C@@H]5[C@H]3C(=O)N(CCCCCCO)[C@@H]4C2=O)cc1 (stereo partly specified) ... -0.0976
5) COC(=O)[C@@]1(Cc2ccccc2)[C@H]2c3cc(C(=O)N4CCCC4)n(Cc4c(CO)[nH]cc(C)c4=O)c3C[C@H]2CN1C(=O)c1ccccc1 ... -0.844
6) O=C1OCCC=C[C@H]2OC34C=CCN(c5ccc(Cl)cc5)C(=O)[C@H]3N(CCCO)C(=O)[C@@H]4C12 (stereo partly specified) ... -0.517

Please state, for each entry, its recorded z-score.
1. C=C(C)[C@@H]1CC=C(C(O)C2C=CC3C(=O)NC(=O)C3N2Nc2ccc(Cl)cc2Cl)CC1 (stereo partly specified)
2. OCCCC1=CC(C2CC2)N(Cc2cccc(OC(F)(F)F)c2)CC1 (stereo unspecified)
3. CC(C)=CCCC(C)=CC(O)C1C=CC2C(=O)N(c3ccccc3)C(=O)C2N1Nc1ccc(C(C)C)cc1 (stereo unspecified)

[-3.88, 0.43, -0.964]

---

Would you mind telling me the reported composite z-score of each entry?
- Experiment Notes: probe aCHRDL2 binding to arrayed compounds – biochemical, biotinylated probe, 635/667 nm fluorescence, primary screen (AID 1100)
- Condition Summary: small-molecule microarray, higher = more signal
Answers are plain numbers.

Worked examples, 4 compounds total:
1. CC(CO)N1C(=O)[C@@H]2C3C(=O)OCCC/C=C\[C@H]3OC23C=CCN(CCN2CCOCC2)C(=O)[C@@H]13 (some centres undefined) ... -0.48
2. CCCNC(=O)[C@@]1(Sc2ccc(C)cc2)CC(=O)N(Cc2ccccc2C(F)(F)F)[C@@H]1c1ccc(CO)cc1I ... 0.726
3. CC(c1ccccc1)C(O)C1C=CC2C(=O)N(c3ccccc3)C(=O)C2N1Nc1ccccc1 (centres undefined) ... 0.818
4. O=C1NC(=O)C2C1C=CC(C(O)c1ccc(I)cc1)N2Nc1ccc(Cl)cc1Cl (centres undefined) ... 1.08

Each compound below has a recorded value; state its composite z-score.
1. Cc1ccc(S[C@]2(C(=O)NCC(C)C)CC(=O)N(Cc3cc(C(F)(F)F)cc(C(F)(F)F)c3)[C@@H]2c2ccc(CO)cc2)cc1
2. C=CCC(OC(C)=O)[C@@H]1[C@@H](N(Cc2cc3ccccc3o2)C(=O)Cc2ccc(OC)cc2)c2cc(OCCCO)ccc2N1C(=O)c1ccc2ccccc2c1 (some centres undefined)
3. O=C1OCCC=C[C@H]2OC34C=CCN(Cn5nnc6ccccc65)C(=O)[C@H]3N(CCO)C(=O)[C@@H]4C12 (some centres undefined)
4. COCC(=C=CC[C@H](O)c1ccccc1OCCO)CCO
5. COc1cc2c(cc1O)C(c1cccs1)N(Cc1ccc([N+](=O)[O-])o1)CC2 (centres undefined)
6. COCCOC(=O)N1C(=O)[C@@]2(c3ccccc31)[C@H](C(N)=O)[C@H]1C(=O)O[C@H](c3ccccc3)[C@H](c3ccccc3)N1[C@@H]2c1ccc(O)cc1

1: 0.736; 2: 0.395; 3: 0.254; 4: -0.423; 5: 0.27; 6: 0.481

Go through the list and state composite z-score for each entry.
1. CCOC(=O)C1=C[C@@H](C(C)C)N(S(=O)(=O)c2ccc(C)cc2)[C@H]1c1ccccc1F
2. C#CCN(C/C=C/c1ccccc1)[C@H](CO)c1ccccc1
3. O=C1O[C@H](c2ccccc2)[C@H](c2ccccc2)N2[C@H]1[C@@H](C(=O)NC[C@H](O)c1ccccc1)[C@]1(C(=O)Nc3ccc(C#CC4=CCCCC4)cc31)[C@H]2c1ccccc1OCCO
4. C=CCC(OC(C)=O)[C@@H]1[C@@H](N(Cc2ccc(-c3cccc(C(F)(F)F)c3)o2)C(=O)c2cccc3ccccc23)c2cc(OCCCO)ccc2N1C(=O)Cc1ccc2ccccc2c1 (some centres undefined)

0.603
-0.506
0.722
0.291

---

- Experiment Notes: basal CRE-LacZ reporter activity in PC12 – cell-based, unstimulated, primary screen (AID 1145)
- Condition Summary: no forskolin, luminescence, 4.5 h, called active from +8 up or from −8 down
The source made the active and inactive calls.
Just give me one of these, please: yes (1) for active, no (0) for inactive

1) C=C(CCCC)/C(=C/C[C@H](OC(=O)c1ccncc1)c1ccc(OCCO)cc1)c1cc(C(=O)OC)ccc1OC ... no (0)
2) CC(C)[Si](C#CCCCC#N)(O[C@H](c1ccccc1)c1cn(Cc2cccc(Cl)c2)nn1)C(C)C ... no (0)
3) CCCCC(O)C1C=CC2C(=O)N(C)C(=O)C2N1N1CCCCC1 (centres undefined) ... no (0)
4) CO[C@H]1O[C@H](CO)[C@@H](OC(=O)Nc2ccccc2)[C@@H]2OC(=O)[C@@H](Cc3ccc4ccccc4c3)C/C=C/C[C@H](Cc3ccc4ccccc4c3)C(=O)O[C@@H]12 ... no (0)
5) COCCOC(=O)N1C(=O)[C@@]2(c3cc(C#CC4=CCCCC4)ccc31)[C@H](C(N)=O)[C@H]1C(=O)O[C@H](c3ccccc3)[C@H](c3ccccc3)N1[C@@H]2c1ccc(O)cc1 ... no (0)
6) CC1CC/C=C\[C@H]2OC34C=CCN(Cc5ccccc5)C(=O)[C@H]3N(C(C)CO)C(=O)[C@@H]4C2C(=O)O1 (some centres undefined) ... no (0)

How did this test come out for `COc1ccc([Si](C)(C)[C@@H]2[C@@H](CCO)O[C@]3(C(=O)N(Cc4cccc(N5CCOC5=O)c4)c4ccccc43)[C@H]2C)cc1` ?
yes (1)

Fill in: this test's call for `COC(=O)[C@]1(CCC(=O)OC(C)(C)C)N=C(c2ccc(OCCCO)cc2)O[C@@H]1c1ccccc1` is ___
no (0)

What classification did CN1C(=O)C2C=CC(C(O)c3ccccc3)N(N3CCCCC3)C2C1=O (centres undefined) end up with in this test?
no (0)

Hey, what did the test say about `NC(=O)[C@@]1(Cc2ccccc2)N=C(c2ccc(OCCCO)cc2)O[C@H]1c1ccccc1` ?
no (0)

Look up the recorded call for `COCC(=C=CC[C@H](O)c1cccc(OCCO)c1)C[C@H](O)c1cc(Cl)cc(Cl)c1O` in this test.
yes (1)

What classification did CCN(CC)c1ccc(N2CC=CC34O[C@@H]5C=CCOC(=O)[C@@H]5[C@H]3C(=O)N(CCCCCCO)[C@@H]4C2=O)cc1 (some centres undefined) end up with in this test?
no (0)

Which outcome did this test record for the molecule `COCCOC(=O)N1C(=O)[C@@]2(c3cc(C#CC4(O)CCCCCC4)ccc31)[C@H](c1ccccc1OCCO)N1[C@H](c3ccccc3)[C@H](c3ccccc3)OC(=O)[C@H]1[C@@H]2C(=O)N1CCc2cc(OC)c(OC)cc2C1` ?
no (0)

# outcome recorded in this test, key = C=CCC(OC(C)=O)[C@@H]1[C@@H](N(Cc2ccc(-c3cccc(C(F)(F)F)c3)o2)C(=O)Cc2ccc(OC)cc2)c2cc(OCCCO)ccc2N1C(=O)c1ccc2ccccc2c1 (some centres undefined)
no (0)
